B1: VH:VL chains; a variant is named by its letters at X, in order (parent)
chain 1: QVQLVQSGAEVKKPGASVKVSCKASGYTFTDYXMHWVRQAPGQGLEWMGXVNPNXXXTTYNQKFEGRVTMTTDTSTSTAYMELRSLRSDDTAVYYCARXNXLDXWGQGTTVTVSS
chain 2: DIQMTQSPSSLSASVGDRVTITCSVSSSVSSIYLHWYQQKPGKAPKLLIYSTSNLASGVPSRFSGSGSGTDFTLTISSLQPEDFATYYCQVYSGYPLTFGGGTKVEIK

variants of: B1; assay: yeast display scFab, FACS + sequencing

- Mutation String: "YRAGGVVA"
  non-specific binding call: "binds"
- Mutation String: "FEETDAGD"
  non-specific binding call: "binds"
- Mutation String: "SEARSDWD"
  non-specific binding call: "no binding"
- Mutation String: "SKTRGAWD"
  non-specific binding call: "binds"
- Mutation String: "DEGTDYAA"
  non-specific binding call: "binds"
- Mutation String: "FRGGGSGV"
  non-specific binding call: "binds"
- Mutation String: "VEEEGSGV"
  non-specific binding call: "no binding"
- Mutation String: "DAKEGAGD"
  non-specific binding call: "no binding"
- Mutation String: "YRGRGFSD"
  non-specific binding call: "binds"
- Mutation String: "YRKRGAGA"
  non-specific binding call: "binds"
- Mutation String: "SREGGFAA"
  non-specific binding call: "binds"
- Mutation String: "YRGGSAGA"
  non-specific binding call: "binds"
- Mutation String: "YRAKGSAA"
  non-specific binding call: "binds"
- Mutation String: "VKAGGAGS chain 1 G44D"
  non-specific binding call: "binds"
- Mutation String: "FTETGFGA"
  non-specific binding call: "binds"
- Mutation String: "DARADSGV"
  non-specific binding call: "no binding"
- Mutation String: "VTGTGSSD"
  non-specific binding call: "no binding"
- Mutation String: "FRTGDSLV"
  non-specific binding call: "no binding"
- Mutation String: "YKGGGALD"
  non-specific binding call: "binds"
- Mutation String: "YRAGGYGF"
  non-specific binding call: "binds"
- Mutation String: "DAGGGYGV"
  non-specific binding call: "no binding"
- Mutation String: "YAGTGDLV"
  non-specific binding call: "no binding"
- Mutation String: "SGKGGSAY"
  non-specific binding call: "binds"
- Mutation String: "YRAKGAGD"
  non-specific binding call: "binds"
- Mutation String: "VEGAAAGS"
  non-specific binding call: "no binding"
- Mutation String: "DEGGTSSA"
  non-specific binding call: "no binding"
- Mutation String: "YRRGSAGF"
  non-specific binding call: "binds"
- Mutation String: "YTKRSAVV"
  non-specific binding call: "binds"
- Mutation String: "YRAGGYAA"
  non-specific binding call: "binds"
- Mutation String: "VRGRGVAV"
  non-specific binding call: "binds"
- Mutation String: "FKKGSSGV"
  non-specific binding call: "binds"
- Mutation String: "FRERGAGD"
  non-specific binding call: "binds"
- Mutation String: "ATGRASLD"
  non-specific binding call: "no binding"
- Mutation String: "SKGRSSWS"
  non-specific binding call: "binds"
- Mutation String: "YRTGGSLD"
  non-specific binding call: "binds"
- Mutation String: "YRKGASVD"
  non-specific binding call: "binds"
- Mutation String: "FRGRGDGY"
  non-specific binding call: "binds"
- Mutation String: "VAGTGDVY"
  non-specific binding call: "no binding"
- Mutation String: "YATGGYAV"
  non-specific binding call: "no binding"
- Mutation String: "SEARSYVV"
  non-specific binding call: "no binding"
